- tested.on: UniProtKB Q9NR97
- experimental.details: TLR8 reporter assay in HEK-Blue cells (SEAP, Quanti-Blue)
- assay.context: 24 hours incubation, SEAP absorbance at 620 nm
endpoint: EC50

Worked set:
* CCOCc1nc2c(N)nc3ccccc3c2n1CC(C)(C)OC(=O)CN | 0.01 to 0.1 µM
* CCOCc1nc2c(N)nc3ccccc3c2n1CC(C)(C)OCCCCN1CCN(CCO)CC1 | 1 to 10 µM
* CCOCc1nc2c(N)nc3ccccc3c2n1CC(C)(C)OCCN1CCN(C)CC1 | 1 to 10 µM

I would be grateful if you could provide EC50 for each of the following entries.
1. CCOCc1nc2c(N)nc3ccccc3c2n1CC(C)(C)OC(=O)CN1CCN(C)CC1
2. CCOCc1nc2c(N)nc3ccccc3c2n1CC(C)(C)OCCNC(=O)CS(=O)(=O)O

result:
["0.1 to 1 µM", "> 10 µM"]

* * *

- tested.on: hTLR8 (Homo sapiens)
- experimental.details: TLR8 reporter assay in HEK-Blue cells (SEAP, Quanti-Blue)
- assay.context: 24 hours incubation, SEAP absorbance at 620 nm
pEC50: −log10 of the molar value.
endpoint: pEC50

• CCOCc1nc2c(N)nc3ccccc3c2n1CC(C)(C)OCCNC(=O)CSC = < 5.00
• CCOCc1nc2c(N)nc3ccccc3c2n1CC(C)(C)OCCNC(=O)CC(=O)OC = < 5.00
• CCOCc1nc2c(N)nc3ccccc3c2n1CC(C)(C)OCCCCn1cc(CO)nn1 = < 5.00
• CCOCc1nc2c(N)nc3ccccc3c2n1CC(C)(C)OCCCCN1CCN(CCSC)CC1 = 5.00 to 6.00
• CCOCc1nc2c(N)nc3ccccc3c2n1CC(C)(C)OCCCCN1CCCCC1 = 5.00 to 6.00

Dear colleague, could you please provide pEC50 for the molecules listed below?
1. CCOCc1nc2c(N)nc3ccccc3c2n1CC(C)(C)OCCCCN1CCCC1
2. CCOCc1nc2c(N)nc3ccccc3c2n1CC(C)(C)OCCCC(=O)N1CCN(C)CC1

result:
6.00 to 7.00
5.00 to 6.00

* * *

- tested.on: hTLR7 (Homo sapiens)
- Sequence (Q9NYK1 27-1049): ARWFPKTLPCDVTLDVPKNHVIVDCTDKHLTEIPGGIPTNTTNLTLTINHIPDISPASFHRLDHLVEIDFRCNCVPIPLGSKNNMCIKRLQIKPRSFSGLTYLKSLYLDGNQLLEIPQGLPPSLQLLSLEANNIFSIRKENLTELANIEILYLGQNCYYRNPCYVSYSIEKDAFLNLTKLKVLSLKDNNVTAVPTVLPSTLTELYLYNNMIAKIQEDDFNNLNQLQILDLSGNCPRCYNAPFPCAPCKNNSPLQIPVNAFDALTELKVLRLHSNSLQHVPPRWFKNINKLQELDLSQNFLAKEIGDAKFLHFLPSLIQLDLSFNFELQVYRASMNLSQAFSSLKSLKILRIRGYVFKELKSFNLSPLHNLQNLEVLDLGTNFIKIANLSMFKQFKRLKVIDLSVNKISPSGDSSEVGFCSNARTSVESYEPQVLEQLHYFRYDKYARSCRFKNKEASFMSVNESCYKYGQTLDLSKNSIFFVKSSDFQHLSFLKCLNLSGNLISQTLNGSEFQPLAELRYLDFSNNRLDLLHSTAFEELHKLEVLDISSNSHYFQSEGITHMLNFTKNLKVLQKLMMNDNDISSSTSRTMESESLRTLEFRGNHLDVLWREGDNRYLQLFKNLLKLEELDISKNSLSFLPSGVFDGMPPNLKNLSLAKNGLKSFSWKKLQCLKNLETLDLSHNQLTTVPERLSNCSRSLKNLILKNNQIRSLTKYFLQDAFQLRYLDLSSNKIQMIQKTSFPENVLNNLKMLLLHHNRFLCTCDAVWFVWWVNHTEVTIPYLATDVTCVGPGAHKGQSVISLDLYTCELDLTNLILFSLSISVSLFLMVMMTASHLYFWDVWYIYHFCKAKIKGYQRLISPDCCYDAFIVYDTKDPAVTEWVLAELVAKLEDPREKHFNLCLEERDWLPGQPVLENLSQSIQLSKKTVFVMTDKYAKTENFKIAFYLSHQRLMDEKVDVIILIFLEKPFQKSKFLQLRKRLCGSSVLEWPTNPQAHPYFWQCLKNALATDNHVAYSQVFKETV
- experimental.details: TLR7 reporter assay in HEK-Blue cells (SEAP, Quanti-Blue)
- assay.context: 24 hours incubation, SEAP absorbance at 620 nm
Would you mind telling me the reported EC50 of each entry?

Here is how some compounds turned out for EC50.
* CCOCc1nc2c(N)nc3ccccc3c2n1CC(C)(C)OC(=O)CN1CCN(C)CC1 [Example 17] | 100 to 1000 nM
* CCOCc1nc2c(N)nc3ccccc3c2n1CC(C)(C)OCCCCCN1CCN(C)CC1 [Example 4] | < 10 nM
* CCOCc1nc2c(N)nc3ccccc3c2n1CC(C)(C)OCCCCN1CCN(CCN)CC1 [Example 11] | 100 to 1000 nM
* CCOCc1nc2c(N)nc3ccccc3c2n1CC(C)(C)OCCNC(=O)CO [Example 20] | > 10000 nM
* CCOCc1nc2c(N)nc3ccccc3c2n1CC(C)(C)OCCCCn1cc(CN)nn1 [Example 14] | 10 to 100 nM

# batch size: 8; output EC50 per entry
1. CCOCc1nc2c(N)nc3ccccc3c2n1CC(C)(C)OCCCCN1CCN(C)CC1 [Example 3]
2. CCOCc1nc2c(N)nc3ccccc3c2n1CC(C)(C)OCCCCN1CCCCC1 [Example 8]
3. CCOCc1nc2c(N)nc3ccccc3c2n1CC(C)(C)OCCCCN1CCN(CCO)CC1 [Example 12]
4. CCOCc1nc2c(N)nc3ccccc3c2n1CC(C)(C)OCCCCN1CCCC1 [Example 9]
5. CCOCc1nc2c(N)nc3ccccc3c2n1CC(C)(C)OCCNC(=O)CS(=O)(=O)O [Example 25]
6. CCOCc1nc2c(N)nc3ccccc3c2n1CC(C)(C)OCCNC(=O)CS(C)(=O)=O [Example 24]
7. CCOCc1nc2c(N)nc3ccccc3c2n1CC(C)(C)OCCCCn1cc(CO)nn1 [Example 13]
8. CCOCc1nc2c(N)nc3ccccc3c2n1CC(C)(C)OCCNC(=O)CC(=O)OC [Example 22]

result:
1: < 10 nM; 2: 10 to 100 nM; 3: 10 to 100 nM; 4: 10 to 100 nM; 5: 1000 to 10000 nM; 6: 100 to 1000 nM; 7: 10 to 100 nM; 8: 100 to 1000 nM

Hi team, please reply with EC50 for each item in this list.
1. CCOCc1nc2c(N)nc3ccccc3c2n1CC(C)(C)OCCCCN1CCOCC1 [Example 7]
2. CCNCc1nc2c(N)nc3ccccc3c2n1CC(C)(C)OCCCCN1CCN(C)CC1 [Example 18]
3. CCOCc1nc2c(N)nc3ccccc3c2n1CC(C)(C)OCCCN1CCN(C)CC1 [Example 2]

result:
1: 10 to 100 nM; 2: 1000 to 10000 nM; 3: 10 to 100 nM

* * *

Could you please report measured pEC50 for the items listed next?
- tested.on: hTLR8 (Homo sapiens, UniProt Q9NR97)
- Sequence (Q9NR97 27-1041): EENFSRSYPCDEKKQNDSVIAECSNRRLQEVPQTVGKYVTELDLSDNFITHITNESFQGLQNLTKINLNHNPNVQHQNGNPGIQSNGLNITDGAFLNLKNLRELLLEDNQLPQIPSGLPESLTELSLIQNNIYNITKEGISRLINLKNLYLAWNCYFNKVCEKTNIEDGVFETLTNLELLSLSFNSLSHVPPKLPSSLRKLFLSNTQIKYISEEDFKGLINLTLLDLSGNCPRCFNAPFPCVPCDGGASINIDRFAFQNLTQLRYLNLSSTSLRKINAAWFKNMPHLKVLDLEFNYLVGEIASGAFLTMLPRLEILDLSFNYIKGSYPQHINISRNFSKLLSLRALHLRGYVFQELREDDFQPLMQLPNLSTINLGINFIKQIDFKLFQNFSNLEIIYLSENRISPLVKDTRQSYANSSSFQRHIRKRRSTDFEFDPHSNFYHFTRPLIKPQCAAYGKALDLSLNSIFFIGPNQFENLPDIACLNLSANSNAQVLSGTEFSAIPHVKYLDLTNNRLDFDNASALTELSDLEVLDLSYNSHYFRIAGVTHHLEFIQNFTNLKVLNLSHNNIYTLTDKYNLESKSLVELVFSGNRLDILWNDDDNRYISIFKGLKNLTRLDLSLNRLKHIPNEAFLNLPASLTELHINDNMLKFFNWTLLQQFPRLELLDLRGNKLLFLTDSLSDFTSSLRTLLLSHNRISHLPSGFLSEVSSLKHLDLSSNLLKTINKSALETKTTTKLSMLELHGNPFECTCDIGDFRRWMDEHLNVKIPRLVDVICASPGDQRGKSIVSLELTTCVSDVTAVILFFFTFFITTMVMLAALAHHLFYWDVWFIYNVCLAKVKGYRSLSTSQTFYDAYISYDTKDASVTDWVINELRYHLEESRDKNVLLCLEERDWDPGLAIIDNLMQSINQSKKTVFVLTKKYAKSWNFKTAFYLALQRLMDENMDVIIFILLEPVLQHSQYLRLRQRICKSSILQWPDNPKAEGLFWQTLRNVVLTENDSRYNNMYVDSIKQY
- experimental.details: TLR8 reporter assay in HEK-Blue cells (SEAP, Quanti-Blue)
- assay.context: 24 hours incubation, SEAP absorbance at 620 nm
pEC50: −log10 of the molar value.

Some entries whose results are on file:
- CCOCc1nc2c(N)nc3ccccc3c2n1CC(C)(C)OCCCCN1CCN(C)CC1: 5.00 to 6.00
- CCOCc1nc2c(N)nc3ccccc3c2n1CC(C)(C)OCCCCO: 5.00 to 6.00
- CCOCc1nc2c(N)nc3ccccc3c2n1CC(C)(C)OCCCCN1CCN(CC(C)(C)SC)CC1: 5.00 to 6.00
- CCOCc1nc2c(N)nc3ccccc3c2n1CC(C)(C)OCCCCN1CCN(CCN)CC1: 5.00 to 6.00

Dear colleague, could you send me pEC50 for each of the items below? Thanks.
1. CCOCc1nc2c(N)nc3ccccc3c2n1CC(C)(C)OCCNC(=O)C(C)(C)O
2. CCOCc1nc2c(N)nc3ccccc3c2n1CC(C)(C)OCCNC(=O)CS(C)(=O)=O
3. CCOCc1nc2c(N)nc3ccccc3c2n1CC(C)(C)OCCCCN1CCOCC1

result:
< 5.00
6.00 to 7.00
6.00 to 7.00
